# Tested on: MCF7
# procedure_summary: Cytotoxicity against human MCF7 cells assessed as reduction in cell viability using compound addition to cell culture cells in log phase of growth and incubated for 48 hrs by MTT assay
# Format: functional, cell-based
# assay_conditions: Homo sapiens, MCF7, 48 h; read-out: IC50
pIC50: −log10 of the molar value.
Entries and their pIC50 values follow.
endpoint: pIC50

{"item_smiles": "CC1=C(CO[Si](C)(C)C(C)(C)C)C(=O)O[C@@H]([C@@H](C)[C@H]2CC[C@H]3[C@@H]4C[C@H](O)[C@]5(O)[C@@H](O)C=CC(=O)[C@]5(C)[C@H]4CC[C@]23C)C1", "recorded_result": 5.25}
{"item_smiles": "CCCC(=O)OCC1=C(C)C[C@H]([C@@H](C)[C@H]2CC[C@H]3[C@@H]4C[C@H]5O[C@]56[C@@H](OC(=O)CCC)C=CC(=O)[C@]6(C)[C@H]4CC[C@]23C)OC1=O", "recorded_result": 6.00}
{"item_smiles": "CC1=C(COC(=O)c2ccccc2)C(=O)O[C@@H]([C@@H](C)[C@H]2CC[C@H]3[C@@H]4C[C@H]5O[C@]56C(=O)C=CC(=O)[C@]6(C)[C@H]4CC[C@]23C)C1", "recorded_result": 5.96}

###

In this section we review reported IC50 values for a set of compounds.
# Test system: A549
# procedure_summary: Cytotoxicity against human A549 cells assessed as reduction in cell viability using compound addition to cell culture cells in log phase of growth and incubated for 48 hrs by MTT assay
# Assay type: functional, cell-based
# assay_conditions: Homo sapiens, A549, 48 h; read-out: IC50

{"item_smiles": "CC1=C(CO)C(=O)O[C@@H]([C@@H](C)[C@H]2CC[C@H]3[C@@H]4C[C@@H](O)[C@]56ON[C@H](CC(=O)[C@]5(C)[C@H]4CC[C@]23C)[C@@H]6O)C1", "IC50": "> 40 µM"}
{"item_smiles": "CC1=C(CCl)C(=O)O[C@@H]([C@@H](C)[C@H]2CC[C@H]3[C@@H]4C[C@H]5O[C@]56[C@H](Cl)C=CC(=O)[C@]6(C)[C@H]4CC[C@]23C)C1", "IC50": "18.1 µM"}
{"item_smiles": "CCCCCCCC(=O)OCC1=C(C)C[C@H]([C@@H](C)[C@H]2CC[C@H]3[C@@H]4C[C@H](Cl)[C@]5(O)[C@@H](OC(=O)CCCCCCC)C=CC(=O)[C@]5(C)[C@H]4CC[C@]23C)OC1=O", "IC50": "> 40 µM"}
{"item_smiles": "C=C1C(=O)O[C@@H]([C@@H](C)[C@H]2CC[C@H]3[C@@H]4C[C@H]5O[C@]56[C@@H](O)[C@@H](OC)CC(=O)[C@]6(C)[C@H]4CC[C@]23C)C=C1C", "IC50": "> 40 µM"}
{"item_smiles": "CC1=C(CO)C(=O)O[C@@H]([C@@H](C)[C@H]2CC[C@H]3[C@@H]4C[C@H]5O[C@]56[C@@H](O)C=C[C@@H](O)[C@]6(C)[C@H]4CC[C@]23C)C1", "IC50": "17.3 µM"}
{"item_smiles": "CC1=C(CO[Si](C)(C)C(C)(C)C)C(=O)O[C@@H]([C@@H](C)[C@H]2CC[C@H]3[C@@H]4C[C@H](O)[C@]5(O)[C@@H](O)C=CC(=O)[C@]5(C)[C@H]4CC[C@]23C)C1", "IC50": "10 µM"}
{"item_smiles": "CC1=C(CCl)C(=O)O[C@@H]([C@@H](C)[C@H]2CC[C@H]3[C@@H]4C[C@H]5O[C@]56[C@@H](O)C=CC(=O)[C@]6(C)[C@H]4CC[C@]23C)C1", "IC50": "3.6 µM"}
{"item_smiles": "COC(=O)CCC(=O)OCC1=C(C)C[C@H]([C@@H](C)[C@H]2CC[C@H]3[C@@H]4C[C@H](Cl)[C@]5(O)[C@@H](OC(=O)CCC(=O)OC)C=CC(=O)[C@]5(C)[C@H]4CC[C@]23C)OC1=O", "IC50": "8.9 µM"}
{"item_smiles": "CC1=C(COC(=O)c2ccc(Br)cc2)C(=O)O[C@@H]([C@@H](C)[C@H]2CC[C@H]3[C@@H]4C[C@H]5O[C@]56[C@@H](O)C=CC(=O)[C@]6(C)[C@H]4CC[C@]23C)C1", "IC50": "4.2 µM"}
